- Test system: A2780DDP
- experiment_notes: Inhibition of cell growth (cells counted on Coulter Counter after six days)
- Assay type: cell-based, human
- assay_setup: A2780 DDP; (2h) exposure; read-out: EC50
measured_property: pEC50
// field semantics: pEC50 = negative decimal log of concentration (mol/L)

response.value for Nc1ccn([C@@H]2O[C@H](CO)[C@@H](O)[C@@H]2O)c(=O)n1 [araC] (field: pEC50) = 5.35

---

- System: K562S
- experiment_notes: Inhibition of cell growth, Table VI
- Format: cell-based, human
- assay_setup: (2h) exposure
measured_property: EC50 (nM)
Only the number, expressed in nM, is required.

response.value for Nc1ccn([C@@H]2O[C@H](CO)[C@@H](O)[C@@H]2O)c(=O)n1 (field: EC50) = 300
